Reference for the values: patent US20260028389A1

# target.desc: T1, rhKLK14 (human, UniProt Q9P0G3 25-251)
# T1 sequence (looked up): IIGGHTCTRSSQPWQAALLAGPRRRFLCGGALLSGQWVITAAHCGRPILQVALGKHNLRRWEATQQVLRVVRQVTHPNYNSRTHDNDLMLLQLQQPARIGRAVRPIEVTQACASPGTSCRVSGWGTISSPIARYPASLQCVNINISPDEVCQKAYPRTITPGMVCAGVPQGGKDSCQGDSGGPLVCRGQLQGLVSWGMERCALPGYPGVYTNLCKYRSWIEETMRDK
# test.summary: cell-based or functional assay
quantity: KLK14, percent inhibition at 316 nM SPINK9 polypeptide, pH 8.0 (%)
Numbers only, in %.

Task: What measured KLK14, percent inhibition at 316 nM SPINK9 polypeptide, pH 8.0 goes with Spink9-236.Fc (SEQ ID NO: 60) (Fc fusion, Mutant SPINK9 domain fused directly to a C-terminal IgG Fc) IECAKQTKQMVDCSHYKKLPPEQQLMCTREYDPICGSDGKTYKNDCFFCSKVKKTDGTLKFVHFGKCEPKSCDKTHTCPPCPAPEAAGGPSVFLFPPKPKDTLMISRTPEVTCVVVDVSHEDPEVKFNWYVDGVEVHNAKTKPREEQYNSTYRVVSVLTVLHQDWLNGKEYKCKVSNKALPAPIEKTISKAKGQPREPQVYTLPPSREEMTKNQVSLTCLVKGFYPSDIAVEWESNGQPENNYKTTPPVLDSDGSFFLYSKLTVDKSRWQQGNVFSCSVLHEALHSHYTQKSLSLSPGK ?
Output: 0
